- system: Jak2 (UniProt O60674)
- Sequence (O60674 whole entry, looked up): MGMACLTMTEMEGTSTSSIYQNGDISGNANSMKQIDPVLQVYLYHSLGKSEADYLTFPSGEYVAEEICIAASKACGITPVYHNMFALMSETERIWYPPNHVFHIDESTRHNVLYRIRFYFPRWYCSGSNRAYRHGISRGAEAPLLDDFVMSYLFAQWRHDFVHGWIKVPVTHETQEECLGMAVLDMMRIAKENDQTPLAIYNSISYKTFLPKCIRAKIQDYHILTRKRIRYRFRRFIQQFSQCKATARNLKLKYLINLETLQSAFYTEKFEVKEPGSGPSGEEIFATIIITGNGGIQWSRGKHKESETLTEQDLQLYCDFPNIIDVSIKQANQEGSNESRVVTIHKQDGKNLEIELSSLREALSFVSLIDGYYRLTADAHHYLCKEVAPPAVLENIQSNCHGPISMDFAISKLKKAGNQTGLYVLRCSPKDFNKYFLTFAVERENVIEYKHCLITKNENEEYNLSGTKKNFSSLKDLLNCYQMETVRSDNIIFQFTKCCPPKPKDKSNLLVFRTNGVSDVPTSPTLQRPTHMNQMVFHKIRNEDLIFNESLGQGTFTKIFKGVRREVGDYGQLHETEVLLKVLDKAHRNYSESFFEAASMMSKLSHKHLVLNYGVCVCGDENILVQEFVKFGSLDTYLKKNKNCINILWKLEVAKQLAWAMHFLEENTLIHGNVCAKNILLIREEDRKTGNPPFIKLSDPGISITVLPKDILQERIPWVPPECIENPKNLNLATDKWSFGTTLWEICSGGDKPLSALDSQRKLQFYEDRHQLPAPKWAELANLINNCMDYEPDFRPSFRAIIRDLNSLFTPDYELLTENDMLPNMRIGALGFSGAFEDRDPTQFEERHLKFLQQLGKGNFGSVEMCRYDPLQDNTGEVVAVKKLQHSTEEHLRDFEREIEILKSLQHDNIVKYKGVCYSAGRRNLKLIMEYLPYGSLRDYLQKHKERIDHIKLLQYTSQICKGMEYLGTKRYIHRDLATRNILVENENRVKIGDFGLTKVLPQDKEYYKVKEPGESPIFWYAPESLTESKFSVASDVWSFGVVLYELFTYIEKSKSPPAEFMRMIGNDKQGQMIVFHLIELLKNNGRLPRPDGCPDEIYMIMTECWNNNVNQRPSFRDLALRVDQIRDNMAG
- assay-name: phosphorylation enrichment, bacterial display (enrichment ratio); higher = better substrate or ligand; peptides without Tyr show the background;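 also: 11-residue human phosphosite peptides and single-mutation variants displayed on the E. coli surface, counted by deep sequencing, each peptide's frequency after selection divided by its frequency in the unselected input library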;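 also: frequency after pTyr selection over input frequency; kinase dosed for 20-30% of maximal phosphorylation in three min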
The label depends only on phosphorylation enrichment: fulfilled if it is at least 0.6, not fulfilled if it is smaller.

Below, 5 sequences whose answers are already recorded.
{"columns": ["record-sequence", "system", "class-assignment"],
 "data": [
  ["RDLTHYLMKIL [ACTG1_Y188_D187H]", "Jak2 (UniProt O60674)", "not fulfilled"],
  ["GISDEYHVIRR [GCDH_Y398_H403R]", "Jak2 (UniProt O60674)", "fulfilled"],
  ["ACEVLYNIAFM [NCF2_Y125]", "Jak2 (UniProt O60674)", "fulfilled"],
  ["RPSELYFSKIG [SMG1_Y2253_YF]", "Jak2 (UniProt O60674)", "not fulfilled"],
  ["FDDIAHIRKTL [PIK3CA_Y1021_Y1021H]", "Jak2 (UniProt O60674)", "fulfilled"]
]}

Task item: Is reported phosphorylation enrichment greater than or equal to 0.6 here: LSVMSYDLGMF [GBA3_Y174]
Reply: fulfilled

Task item: Textbook exercise: given the entry QGCGIYKDFFR [PLA2G2D_Y82_S80G_YF] , state whether its phosphorylation enrichment is greater than or equal to 0.6.
Reply: fulfilled

Task item: Hi, just wondering whether FFRNVYHLASV [RBL1_Y796_K794N_YF] shows phosphorylation enrichment of 0.6 or higher.
Reply: not fulfilled

Task item: Threshold query (phosphorylation enrichment >= 0.6) on KKFVPYFDLFM [IPO5_Y530_E525K_YF]
Reply: fulfilled

Task item: Reported phosphorylation enrichment at or above 0.6? DTKAFYPEEIS [HSPA1A_Y115_E110D]
Reply: fulfilled

Task item: Could you verify whether the entry FLAATYPTVGQ [NF1_Y2508_YF] shows phosphorylation enrichment of no less than 0.6?
Reply: not fulfilled

====

The entries below are paired with their reported phosphorylation enrichment.
- system: EPHB1 (UniProt P54762)
- Sequence (P54762 whole entry, looked up): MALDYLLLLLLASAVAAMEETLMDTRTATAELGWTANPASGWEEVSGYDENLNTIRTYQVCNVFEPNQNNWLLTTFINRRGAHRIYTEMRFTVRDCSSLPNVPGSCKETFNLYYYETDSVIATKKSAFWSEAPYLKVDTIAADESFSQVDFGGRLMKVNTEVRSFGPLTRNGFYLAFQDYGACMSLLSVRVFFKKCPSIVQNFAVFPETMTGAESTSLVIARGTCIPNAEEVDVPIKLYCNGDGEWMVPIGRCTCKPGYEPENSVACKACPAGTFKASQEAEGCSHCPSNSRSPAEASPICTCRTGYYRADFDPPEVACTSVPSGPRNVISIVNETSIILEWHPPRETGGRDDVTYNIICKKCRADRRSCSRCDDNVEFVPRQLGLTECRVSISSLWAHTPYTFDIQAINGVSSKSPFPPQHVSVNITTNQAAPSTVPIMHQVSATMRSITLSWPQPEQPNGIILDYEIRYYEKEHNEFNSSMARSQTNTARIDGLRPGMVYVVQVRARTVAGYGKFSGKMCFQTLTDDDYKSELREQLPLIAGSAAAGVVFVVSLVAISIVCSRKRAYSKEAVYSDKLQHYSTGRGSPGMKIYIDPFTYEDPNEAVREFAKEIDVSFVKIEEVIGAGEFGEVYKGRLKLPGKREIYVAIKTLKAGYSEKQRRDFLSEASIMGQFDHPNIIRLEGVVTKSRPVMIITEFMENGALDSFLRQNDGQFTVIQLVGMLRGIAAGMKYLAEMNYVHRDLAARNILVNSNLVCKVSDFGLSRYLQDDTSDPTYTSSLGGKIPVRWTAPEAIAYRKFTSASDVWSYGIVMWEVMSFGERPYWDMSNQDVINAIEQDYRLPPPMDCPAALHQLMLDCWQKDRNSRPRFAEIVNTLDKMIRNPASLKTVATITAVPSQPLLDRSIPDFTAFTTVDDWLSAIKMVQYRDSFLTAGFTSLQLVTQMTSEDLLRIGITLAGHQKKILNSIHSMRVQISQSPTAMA
- assay-name: phosphorylation enrichment, bacterial display (enrichment ratio); higher = better substrate or ligand; peptides without Tyr show the background
Answer using only a numeral; do not append any unit.

Task item: I would be grateful if you could share the reported phosphorylation enrichment for FDDIAHIRKTL [PIK3CA_Y1021_Y1021H] .
Reply: 0.51

Task item: Would you kindly share the measured phosphorylation enrichment for KPIETYFSKNF [PLP1_Y50_L46P_YF] ?
Reply: 0.506

Task item: Any idea what its phosphorylation enrichment is? The sequence is FKDGQYWIRGR [ACSF3_Y466]
Reply: 0.317

Task item: Param item = SIKGKYVTALF [KCNH2_Y611_D609G_YF] ; retrieve measured phosphorylation enrichment.
Reply: 0.519

Task item: What measured phosphorylation enrichment goes with YRQNVYIPGSN [PCDHGA1_Y895] ?
Reply: 0.421

Task item: Request the reported phosphorylation enrichment associated with VPLATYMQIFK [RPL21_Y30_R32Q_YF]
Reply: 1.83

====

- system: Hck (UniProt P08631)
- Sequence (P08631 whole entry, looked up): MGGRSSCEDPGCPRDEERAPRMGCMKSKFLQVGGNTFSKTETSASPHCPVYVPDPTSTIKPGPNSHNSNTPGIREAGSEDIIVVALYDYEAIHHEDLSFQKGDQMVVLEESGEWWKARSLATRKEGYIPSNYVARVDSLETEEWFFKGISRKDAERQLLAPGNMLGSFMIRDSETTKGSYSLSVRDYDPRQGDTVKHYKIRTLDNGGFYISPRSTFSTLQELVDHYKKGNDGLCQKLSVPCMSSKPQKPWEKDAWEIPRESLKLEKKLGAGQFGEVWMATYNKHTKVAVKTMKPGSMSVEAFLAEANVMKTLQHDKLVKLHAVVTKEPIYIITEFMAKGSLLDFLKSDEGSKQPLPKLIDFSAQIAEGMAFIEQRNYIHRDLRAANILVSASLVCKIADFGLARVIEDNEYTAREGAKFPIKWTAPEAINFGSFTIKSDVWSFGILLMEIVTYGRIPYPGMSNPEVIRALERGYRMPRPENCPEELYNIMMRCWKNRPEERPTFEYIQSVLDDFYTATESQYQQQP
- assay-name: phosphorylation enrichment, bacterial display (enrichment ratio); higher = better substrate or ligand; peptides without Tyr show the background
Quick rule for you: phosphorylation enrichment at 0.5 or higher means True, lower means False.

{"columns": ["record-sequence", "class-assignment"],
 "data": [
  ["SVTCTYSPALT [TP53_Y126_N131T]", "True"]
]}

Task item: For this sequence, is measured phosphorylation enrichment 0.5 or higher? RLLRGYDQYAY [HLA-B_Y137_H137Y]
Reply: True

Task item: Is the recorded value of phosphorylation enrichment equal to or greater than 0.5 for this sequence? KQINDYVEKGT [SERPINA1_Y184]
Reply: False

Task item: Kindly determine if phosphorylation enrichment recorded for GISDEYHVIRR [GCDH_Y398_H403R] is above or exactly 0.5.
Reply: True

Task item: Determine whether measured phosphorylation enrichment meets or exceeds 0.5 for LINLKYSVEEE [PCDH19_Y27]
Reply: False

Task item: Quick check, phosphorylation enrichment >= 0.5? DDKQPYEKKAE [HMGB1_Y144_A149E]
Reply: True

Task item: Is the recorded value of phosphorylation enrichment equal to or greater than 0.5 for this sequence? FLKDVYVDSKD [NDUFAF4_Y69]
Reply: True

Task item: Threshold query (phosphorylation enrichment >= 0.5) on HQNGTYGLHQD [SGSH_Y89_M88T]
Reply: True

Task item: Confirm if phosphorylation enrichment reported for the sequence VLALWYYYLTH [ZDHHC23_Y127] is 0.5 or above.
Reply: True

Task item: Tell me whether phosphorylation enrichment is at least 0.5 here: EVDGLYREAPI [MYL12B_Y143_E141G]
Reply: True

Task item: Tell me whether phosphorylation enrichment is at least 0.5 here: CTTSHYNFMCN [TP53_Y234_I232S_YF]
Reply: False

Task item: Evaluate KSRQIYDAYIM [GRK3_Y109_R104K] : phosphorylation enrichment at minimum 0.5?
Reply: True

Task item: Confirm if phosphorylation enrichment reported for the sequence KLNNEYLELNF [MME_Y497_YF] is 0.5 or above.
Reply: True

Task item: Could you please find out whether YTFTSYYMHWV [IGHV1-46_Y51] has phosphorylation enrichment that meets 0.5 or exceeds it?
Reply: True

Task item: I'd appreciate it if you could say whether GDYYRSLAEVA [YWHAG_Y133_Y133S] has phosphorylation enrichment at least equal to 0.5.
Reply: True

====

Consider the following sequences and their measured phosphorylation enrichment readings.
- System: AncSZ
- assay-name: phosphorylation enrichment, bacterial display (enrichment ratio); higher = better substrate or ligand; peptides without Tyr show the background

{"columns": ["record-sequence", "system", "val"],
 "data": [
  ["FHKALYTVRTY [PDE6C_Y266_S270T]", "AncSZ", 0.964],
  ["DYLEKYYKFGC [NNMT_Y24_S29C]", "AncSZ", 1.44],
  ["PLDGEYFTLHI [TP53_Y327_Q331H]", "AncSZ", 2.49],
  ["HLSPEYKQNEI [GJB1_Y243_R238H]", "AncSZ", 0.966],
  ["GNLLIYTDFGK [HGD_Y166_E168D]", "AncSZ", 1.08],
  ["TSFQMYDKGLV [IARS2_Y231_F227S_YF]", "AncSZ", 0.925]
]}

In the following, a different sequence is considered.
Task item: Would you kindly share the measured phosphorylation enrichment for FKDGQYWIRGW [ACSF3_Y466_R471W] ?
Reply: 0.998

====

Catalogue of phosphorylation enrichment values
- system: Fyn (UniProt P06241)
- Sequence (P06241 whole entry, looked up): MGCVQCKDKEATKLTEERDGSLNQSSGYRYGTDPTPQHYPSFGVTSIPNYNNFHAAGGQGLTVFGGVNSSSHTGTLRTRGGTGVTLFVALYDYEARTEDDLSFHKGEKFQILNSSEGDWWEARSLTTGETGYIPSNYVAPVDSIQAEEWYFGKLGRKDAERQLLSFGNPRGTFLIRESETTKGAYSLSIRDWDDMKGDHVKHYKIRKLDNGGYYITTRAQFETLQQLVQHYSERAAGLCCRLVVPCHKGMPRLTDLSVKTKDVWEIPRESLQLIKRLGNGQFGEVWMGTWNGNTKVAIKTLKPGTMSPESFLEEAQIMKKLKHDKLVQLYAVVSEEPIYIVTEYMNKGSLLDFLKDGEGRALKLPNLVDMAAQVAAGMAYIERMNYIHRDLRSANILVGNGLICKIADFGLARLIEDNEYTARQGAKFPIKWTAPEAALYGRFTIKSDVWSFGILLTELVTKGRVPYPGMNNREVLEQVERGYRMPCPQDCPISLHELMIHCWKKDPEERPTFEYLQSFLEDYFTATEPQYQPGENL
- assay-name: phosphorylation enrichment, bacterial display (enrichment ratio); higher = better substrate or ligand; peptides without Tyr show the background

{"columns": ["record-sequence", "val"],
 "data": [
  ["SVVVPYEPPEG [TP53_Y220_V225G]", 0.525]
]}

Task item: What phosphorylation enrichment appears in the records for this sequence with Fyn (UniProt P06241)? DTCPPYVLSQV [GJB4_Y237_G242V]
Reply: 0.573

Task item: Query for Fyn (UniProt P06241): what phosphorylation enrichment does the record show for PLDGEYFTLHI [TP53_Y327_Q331H] ?
Reply: 2.35

Task item: Give phosphorylation enrichment (Fyn (UniProt P06241)) of the following sequence: LGQRIYQYIQS [DYRK1B_Y271]
Reply: 4.18

Task item: # returns recorded phosphorylation enrichment (system: Fyn (UniProt P06241)) for TFHNTYHSQMR [IL1RAPL1_Y615]
Reply: 0.471

Task item: Entry YKGKKYKPLDL [RPL35_Y78] , system Fyn (UniProt P06241): what phosphorylation enrichment was measured?
Reply: 0.511

Task item: Could you share what phosphorylation enrichment was measured for NHQYDYTFHWT [CSNK1A1_Y294_D297H] , tested on Fyn (UniProt P06241)?
Reply: 0.602

Task item: Form: Entry = LVMFIYDIFGM [SCN1A_Y1684_A1685D] | System = Fyn (UniProt P06241) | phosphorylation enrichment = ____
Reply: 8.72

Task item: Short answer please: phosphorylation enrichment, Fyn (UniProt P06241), entry AEKPKYQISNI [TJP1_Y1602_N1605S]
Reply: 0.372

Task item: Which measured phosphorylation enrichment belongs to SLAARYYNWVC [FLT4_Y1230_S1235C] , tested on Fyn (UniProt P06241)?
Reply: 0.565

====

- System: AncSZ
- assay-name: phosphorylation enrichment, bacterial display (enrichment ratio); higher = better substrate or ligand; peptides without Tyr show the background
reported-property: phosphorylation enrichment
Lab note: jot the number down without any unit.

{"columns": ["record-sequence", "system", "reported-property", "val"],
 "data": [
  ["DTCPPYVLSQV [GJB4_Y237_G242V]", "AncSZ", "phosphorylation enrichment", 1.01],
  ["GSIQQYTYKQE [PRG4_Y1271_I1272T]", "AncSZ", "phosphorylation enrichment", 0.773],
  ["RSFSPCDFQPC [TNS1_Y796_Y796C_YF]", "AncSZ", "phosphorylation enrichment", 0.83],
  ["QRMGTYGVRAA [ICAM2_Y260]", "AncSZ", "phosphorylation enrichment", 1.26]
]}

Task item: Please give the measured phosphorylation enrichment for this sequence: GESVSYLFSHV [PRPS1_Y311]
Reply: 0.872
